Each record here notes measured inhibition of growth at 20 µg/mL.
Test system: HeLa
Assay: Cytotoxicity against human HeLa cells assessed as cell growth inhibition at 20 ug/ml after 72 hrs by MTT assay
Format: functional
Details: read-out: GI

CNc1nc(C(F)(F)F)c(C(=O)N/N=C/c2cc(C(F)(F)F)cc(C(F)(F)F)c2)s1 < 30%
CNc1nc(C)c(C(=O)N/N=C/c2ccccc2C(F)(F)F)s1 < 30%
CNc1nc(C)c(C(=O)N/N=C/c2ccc(C(F)(F)F)cc2)s1 < 30%
CNc1nc(C)c(C(=O)N/N=C/c2cccc(C(F)(F)F)c2)s1 < 30%
CCOC(=O)c1sc(NC)nc1C(F)(F)F < 10%

Let us move to another entry and its inhibition of growth at 20 µg/mL.
Query: Tell me its inhibition of growth at 20 µg/mL given `CNc1nc(C(F)(F)F)c(C(=O)N/N=C/c2cccc(C(F)(F)F)c2)s1` as the entry.
Result: < 30%

----------
Each record here notes measured inhibition at 72 h, 20 ug/ml.
Test system: MCF-7, HepG2, BGC-823, HeLa, A549 cancer cell lines (Homo sapiens)
Assay: Cytotoxicity against human MCF-7, HepG2, BGC-823, HeLa and A549 cells assessed as cell growth inhibition at 20 ug/ml after 72 hrs by MTT assay
Conditions: read-out: GI

Use these answered entries as a reference point.
CNc1nc(C(F)(F)F)c(C(=O)N/N=C/c2cc(C(F)(F)F)cc(C(F)(F)F)c2)s1 < 30%
CNc1nc(C(F)(F)F)c(C(=O)N/N=C/c2ccccc2C(F)(F)F)s1 < 30%
CNc1nc(C)c(C(=O)N/N=C/c2cc(C(F)(F)F)cc(C(F)(F)F)c2)s1 < 30%

Query: Tell me its inhibition at 72 h, 20 ug/ml given `CNc1nc(C(F)(F)F)c(C(=O)N/N=C/c2ccc(C(F)(F)F)cc2)s1` as the entry.
Result: < 30%

Query: Tell me its inhibition at 72 h, 20 ug/ml given `CCOC(=O)c1sc(NC)nc1C(F)(F)F` as the entry.
Result: < 10%

Query: Tell me its inhibition at 72 h, 20 ug/ml given `CNc1nc(C(F)(F)F)c(C(=O)N/N=C/c2cccc(C(F)(F)F)c2)s1` as the entry.
Result: < 30%

Query: Tell me its inhibition at 72 h, 20 ug/ml given `CNc1nc(C)c(C(=O)N/N=C/c2cccc(C(F)(F)F)c2)s1` as the entry.
Result: < 30%

Query: Tell me its inhibition at 72 h, 20 ug/ml given `CNc1nc(C)c(C(=O)N/N=C/c2ccc(C(F)(F)F)cc2)s1` as the entry.
Result: < 30%

Query: Tell me its inhibition at 72 h, 20 ug/ml given `CCOC(=O)c1sc(NC)nc1C` as the entry.
Result: < 10%

Query: Tell me its inhibition at 72 h, 20 ug/ml given `CNc1nc(C)c(C(=O)N/N=C/c2ccccc2C(F)(F)F)s1` as the entry.
Result: < 30%

----------
Tested on: A549
Experiment: Cytotoxicity against human A549 cells assessed as cell growth inhibition at 20 ug/ml after 72 hrs by MTT assay
Assay type: functional
Conditions: A549, 72 h, read-out: GI
Each record here notes measured inhibition of growth at 20 µg/mL.

Use these answered entries as a reference point.
CCOC(=O)c1sc(NC)nc1C < 10%
CNc1nc(C)c(C(=O)N/N=C/c2cc(C(F)(F)F)cc(C(F)(F)F)c2)s1 < 30%
CCOC(=O)c1sc(NC)nc1C(F)(F)F < 10%

Query: Tell me its inhibition of growth at 20 µg/mL given `CNc1nc(C)c(C(=O)N/N=C/c2ccc(C(F)(F)F)cc2)s1` as the entry.
Result: < 30%

Query: Tell me its inhibition of growth at 20 µg/mL given `CNc1nc(C)c(C(=O)N/N=C/c2cccc(C(F)(F)F)c2)s1` as the entry.
Result: < 30%

Query: Tell me its inhibition of growth at 20 µg/mL given `CNc1nc(C(F)(F)F)c(C(=O)N/N=C/c2cccc(C(F)(F)F)c2)s1` as the entry.
Result: < 30%

Query: Tell me its inhibition of growth at 20 µg/mL given `CNc1nc(C(F)(F)F)c(C(=O)N/N=C/c2cc(C(F)(F)F)cc(C(F)(F)F)c2)s1` as the entry.
Result: < 30%

Query: Tell me its inhibition of growth at 20 µg/mL given `CNc1nc(C(F)(F)F)c(C(=O)N/N=C/c2ccc(C(F)(F)F)cc2)s1` as the entry.
Result: < 30%

Query: Tell me its inhibition of growth at 20 µg/mL given `CNc1nc(C)c(C(=O)N/N=C/c2ccccc2C(F)(F)F)s1` as the entry.
Result: < 30%

Query: Tell me its inhibition of growth at 20 µg/mL given `CNc1nc(C(F)(F)F)c(C(=O)N/N=C/c2ccccc2C(F)(F)F)s1` as the entry.
Result: < 30%

----------
Each record here notes measured inhibition of growth at 20 µg/mL.
System: MCF7
Test: Cytotoxicity against human MCF7 cells assessed as cell growth inhibition at 20 ug/ml after 72 hrs by MTT assay
Type: functional
Conditions: MCF7, 72 h, read-out: GI

CNc1nc(C(F)(F)F)c(C(=O)N/N=C/c2ccccc2C(F)(F)F)s1 < 30%

Query: Would you please give the reported inhibition of growth at 20 µg/mL of `CNc1nc(C(F)(F)F)c(C(=O)N/N=C/c2cccc(C(F)(F)F)c2)s1` with MCF7?
Result: < 30%

Query: Would you please give the reported inhibition of growth at 20 µg/mL of `CNc1nc(C(F)(F)F)c(C(=O)N/N=C/c2cc(C(F)(F)F)cc(C(F)(F)F)c2)s1` with MCF7?
Result: < 30%

Query: Would you please give the reported inhibition of growth at 20 µg/mL of `CCOC(=O)c1sc(NC)nc1C(F)(F)F` with MCF7?
Result: < 10%

Query: Would you please give the reported inhibition of growth at 20 µg/mL of `CCOC(=O)c1sc(NC)nc1C` with MCF7?
Result: < 10%

Query: Would you please give the reported inhibition of growth at 20 µg/mL of `CNc1nc(C)c(C(=O)N/N=C/c2ccc(C(F)(F)F)cc2)s1` with MCF7?
Result: < 30%

----------
System: HeLa
Assay: Cytotoxicity against human HeLa cells assessed as cell growth inhibition at 20 ug/ml after 72 hrs by MTT assay
Type: functional
Settings: read-out: GI
Each record here notes measured inhibition of growth at 20 µg/mL.

Use these answered entries as a reference point.
CNc1nc(C(F)(F)F)c(C(=O)N/N=C/c2ccc(C(F)(F)F)cc2)s1 < 30%
CCOC(=O)c1sc(NC)nc1C < 10%
CNc1nc(C(F)(F)F)c(C(=O)N/N=C/c2ccccc2C(F)(F)F)s1 < 30%

Query: Tell me its inhibition of growth at 20 µg/mL given `CNc1nc(C)c(C(=O)N/N=C/c2cc(C(F)(F)F)cc(C(F)(F)F)c2)s1` as the entry.
Result: < 30%

These measurements were taken from ChEMBL document CHEMBL3813688.
